Entries and their measured kinase still bound, per cent of control follow.
# tgt: MAP3K15 (human) (UniProt Q6ZN16)
# Sequence (Q6ZN16 whole entry, looked up): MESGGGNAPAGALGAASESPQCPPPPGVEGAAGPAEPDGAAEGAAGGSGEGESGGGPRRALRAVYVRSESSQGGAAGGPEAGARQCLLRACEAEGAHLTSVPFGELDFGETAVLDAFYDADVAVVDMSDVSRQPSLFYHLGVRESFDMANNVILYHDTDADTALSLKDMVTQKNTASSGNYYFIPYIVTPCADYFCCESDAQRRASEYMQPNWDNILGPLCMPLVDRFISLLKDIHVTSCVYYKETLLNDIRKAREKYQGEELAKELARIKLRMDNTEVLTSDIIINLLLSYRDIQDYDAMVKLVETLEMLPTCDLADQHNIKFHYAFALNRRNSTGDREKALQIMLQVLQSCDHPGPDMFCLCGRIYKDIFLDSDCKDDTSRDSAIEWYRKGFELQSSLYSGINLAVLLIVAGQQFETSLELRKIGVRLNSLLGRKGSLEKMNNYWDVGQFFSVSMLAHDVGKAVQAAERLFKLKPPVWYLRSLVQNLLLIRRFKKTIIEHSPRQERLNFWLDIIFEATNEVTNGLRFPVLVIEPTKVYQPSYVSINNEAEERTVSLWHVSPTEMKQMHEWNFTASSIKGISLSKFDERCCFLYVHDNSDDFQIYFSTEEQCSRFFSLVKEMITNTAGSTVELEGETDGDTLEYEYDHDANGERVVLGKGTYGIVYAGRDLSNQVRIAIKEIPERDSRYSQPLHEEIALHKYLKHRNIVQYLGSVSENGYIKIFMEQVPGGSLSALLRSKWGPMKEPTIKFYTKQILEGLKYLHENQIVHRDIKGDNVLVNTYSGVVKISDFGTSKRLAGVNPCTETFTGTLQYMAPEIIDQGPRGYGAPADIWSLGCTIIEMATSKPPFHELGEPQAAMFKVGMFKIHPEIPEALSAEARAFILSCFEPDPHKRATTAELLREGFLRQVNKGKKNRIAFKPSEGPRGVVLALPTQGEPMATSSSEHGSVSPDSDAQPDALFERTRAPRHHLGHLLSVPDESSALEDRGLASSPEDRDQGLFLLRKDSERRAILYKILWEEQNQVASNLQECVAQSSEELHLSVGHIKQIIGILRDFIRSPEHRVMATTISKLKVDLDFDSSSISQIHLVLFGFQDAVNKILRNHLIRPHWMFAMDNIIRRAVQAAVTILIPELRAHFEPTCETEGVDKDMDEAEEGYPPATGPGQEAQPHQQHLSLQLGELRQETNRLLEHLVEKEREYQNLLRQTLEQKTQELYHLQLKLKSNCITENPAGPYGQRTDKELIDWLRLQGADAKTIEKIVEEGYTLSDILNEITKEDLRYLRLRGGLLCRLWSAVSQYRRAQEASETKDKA
# experiment.notes: KINOMEscan competition binding
# cond: compound 10.0 µM
API: value field is a number in %; no unit string.

Q: Lab note: MAP3K15 (human) (UniProt Q6ZN16) assay, enter kinase still bound, per cent of control for `COc1ccc(-c2ccc3c(N4CCOCC4)nc(N4C[C@@H](C)O[C@@H](C)C4)nc3n2)cc1CO` here
A: 97

New cases:
Q: Lab note: MAP3K15 (human) (UniProt Q6ZN16) assay, enter kinase still bound, per cent of control for `COC(=O)Nc1ccc(-c2nc(N3CCOCC3)c3cnn(C4CCN(C(=O)OC)CC4)c3n2)cc1` here
A: 96

Q: Lab note: MAP3K15 (human) (UniProt Q6ZN16) assay, enter kinase still bound, per cent of control for `CCC(=O)N1CCN(c2ccc(-n3c(=O)ccc4cnc5ccc(-c6cnc7ccccc7c6)cc5c43)cc2C(F)(F)F)CC1` here
A: 100

Q: Lab note: MAP3K15 (human) (UniProt Q6ZN16) assay, enter kinase still bound, per cent of control for `CC(C)n1nc(-c2cc3cc(O)ccc3[nH]2)c2c(N)ncnc21` here
A: 76

* * *

# tgt: TEC (human) (UniProt P42680)
# Sequence (P42680 whole entry, looked up): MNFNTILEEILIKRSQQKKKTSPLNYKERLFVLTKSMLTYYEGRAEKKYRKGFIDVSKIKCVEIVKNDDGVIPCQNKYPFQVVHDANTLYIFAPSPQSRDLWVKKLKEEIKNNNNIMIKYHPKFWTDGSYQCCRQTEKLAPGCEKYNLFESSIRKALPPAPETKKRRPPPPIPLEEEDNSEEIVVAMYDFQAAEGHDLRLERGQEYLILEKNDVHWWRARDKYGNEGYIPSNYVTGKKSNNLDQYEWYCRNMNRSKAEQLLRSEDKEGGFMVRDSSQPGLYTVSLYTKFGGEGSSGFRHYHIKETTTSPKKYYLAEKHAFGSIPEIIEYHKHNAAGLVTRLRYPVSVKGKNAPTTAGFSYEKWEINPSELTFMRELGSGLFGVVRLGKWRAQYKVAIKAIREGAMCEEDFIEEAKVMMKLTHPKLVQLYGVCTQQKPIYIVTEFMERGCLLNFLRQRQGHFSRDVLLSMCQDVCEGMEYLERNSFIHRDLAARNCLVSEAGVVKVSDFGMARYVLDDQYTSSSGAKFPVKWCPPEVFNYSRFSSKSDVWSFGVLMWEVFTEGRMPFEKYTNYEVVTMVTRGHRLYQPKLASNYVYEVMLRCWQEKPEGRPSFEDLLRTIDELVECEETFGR
# experiment.notes: KINOMEscan competition binding
# cond: compound 10.0 µM
Entries and their measured kinase still bound, per cent of control follow.
API: value field is a number in %; no unit string.

Q: Please list kinase still bound, per cent of control recorded for the compound `COc1ccc(-c2ccc3c(N4CCOCC4)nc(N4C[C@@H](C)O[C@@H](C)C4)nc3n2)cc1CO`
A: 92

New cases:
Q: Please list kinase still bound, per cent of control recorded for the compound `CCC(=O)N1CCN(c2ccc(-n3c(=O)ccc4cnc5ccc(-c6cnc7ccccc7c6)cc5c43)cc2C(F)(F)F)CC1`
A: 99

Q: Please list kinase still bound, per cent of control recorded for the compound `CC(C)n1nc(-c2cc3cc(O)ccc3[nH]2)c2c(N)ncnc21`
A: 100

Q: Please list kinase still bound, per cent of control recorded for the compound `COC(=O)Nc1ccc(-c2nc(N3CCOCC3)c3cnn(C4CCN(C(=O)OC)CC4)c3n2)cc1`
A: 96

* * *

Entries and their measured per cent of control follow.
# tgt: MAPKAPK2 (human) (UniProt P49137)
# Sequence (P49137 whole entry, looked up): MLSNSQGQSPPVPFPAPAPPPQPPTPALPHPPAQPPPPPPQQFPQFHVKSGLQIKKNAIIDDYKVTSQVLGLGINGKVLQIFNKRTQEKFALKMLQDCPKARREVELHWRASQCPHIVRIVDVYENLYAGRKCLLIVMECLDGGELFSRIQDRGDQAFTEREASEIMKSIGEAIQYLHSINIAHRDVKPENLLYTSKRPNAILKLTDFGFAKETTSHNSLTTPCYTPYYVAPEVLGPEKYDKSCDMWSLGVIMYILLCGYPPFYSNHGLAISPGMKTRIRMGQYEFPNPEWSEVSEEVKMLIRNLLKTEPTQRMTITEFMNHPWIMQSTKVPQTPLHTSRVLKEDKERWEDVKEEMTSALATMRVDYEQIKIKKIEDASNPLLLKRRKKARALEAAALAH
# cond: compound 10.0 µM
API: value field is a number in %; no unit string.

// known answers, use as guide
Q: Please list per cent of control recorded for the molecule `COC(=O)Nc1ccc(-c2nc(N3CCOCC3)c3cnn(C4CCN(C(=O)OC)CC4)c3n2)cc1`
A: 91

Q: Please list per cent of control recorded for the molecule `COc1ccc(-c2ccc3c(N4CCOCC4)nc(N4C[C@@H](C)O[C@@H](C)C4)nc3n2)cc1CO`
A: 81

Q: Please list per cent of control recorded for the molecule `CC(C)n1nc(-c2cc3cc(O)ccc3[nH]2)c2c(N)ncnc21`
A: 94

New cases:
Q: Please list per cent of control recorded for the molecule `CCC(=O)N1CCN(c2ccc(-n3c(=O)ccc4cnc5ccc(-c6cnc7ccccc7c6)cc5c43)cc2C(F)(F)F)CC1`
A: 108

* * *

# tgt: FES (human)
# experiment.notes: KINOMEscan competition binding
# cond: compound 10.0 µM
quantity.name: kinase still bound, per cent of control (%)
API: value field is a number in %; no unit string.

// known answers, use as guide
Q: Please list kinase still bound, per cent of control recorded for the molecule `COC(=O)Nc1ccc(-c2nc(N3CCOCC3)c3cnn(C4CCN(C(=O)OC)CC4)c3n2)cc1`
A: 100

Q: Please list kinase still bound, per cent of control recorded for the molecule `CCC(=O)N1CCN(c2ccc(-n3c(=O)ccc4cnc5ccc(-c6cnc7ccccc7c6)cc5c43)cc2C(F)(F)F)CC1`
A: 41

Q: Please list kinase still bound, per cent of control recorded for the molecule `CC(C)n1nc(-c2cc3cc(O)ccc3[nH]2)c2c(N)ncnc21`
A: 100

Alright, here's another molecule for you.
Q: Please list kinase still bound, per cent of control recorded for the molecule `COc1ccc(-c2ccc3c(N4CCOCC4)nc(N4C[C@@H](C)O[C@@H](C)C4)nc3n2)cc1CO`
A: 99

* * *

Entries and their measured per cent of control follow.
# tgt: CDKL2 (human)
# experiment.notes: KINOMEscan competition binding
# cond: compound 10.0 µM
API: value field is a number in %; no unit string.

Q: Please list per cent of control recorded for the molecule `CC(C)n1nc(-c2cc3cc(O)ccc3[nH]2)c2c(N)ncnc21`
A: 75

Q: Please list per cent of control recorded for the molecule `COC(=O)Nc1ccc(-c2nc(N3CCOCC3)c3cnn(C4CCN(C(=O)OC)CC4)c3n2)cc1`
A: 94

Q: Please list per cent of control recorded for the molecule `COc1ccc(-c2ccc3c(N4CCOCC4)nc(N4C[C@@H](C)O[C@@H](C)C4)nc3n2)cc1CO`
A: 95

Alright, here's another molecule for you.
Q: Please list per cent of control recorded for the molecule `CCC(=O)N1CCN(c2ccc(-n3c(=O)ccc4cnc5ccc(-c6cnc7ccccc7c6)cc5c43)cc2C(F)(F)F)CC1`
A: 58

* * *

# Test system: FLT3 (human), P36888 [D835H]
# experiment.notes: KINOMEscan competition binding
# cond: compound 10.0 µM
Entries and their measured kinase still bound, per cent of control follow.
API: value field is a number in %; no unit string.

Q: Please list kinase still bound, per cent of control recorded for the compound `COC(=O)Nc1ccc(-c2nc(N3CCOCC3)c3cnn(C4CCN(C(=O)OC)CC4)c3n2)cc1`
A: 91

New cases:
Q: Please list kinase still bound, per cent of control recorded for the compound `CCC(=O)N1CCN(c2ccc(-n3c(=O)ccc4cnc5ccc(-c6cnc7ccccc7c6)cc5c43)cc2C(F)(F)F)CC1`
A: 18

Q: Please list kinase still bound, per cent of control recorded for the compound `CC(C)n1nc(-c2cc3cc(O)ccc3[nH]2)c2c(N)ncnc21`
A: 7.4

Q: Please list kinase still bound, per cent of control recorded for the compound `COc1ccc(-c2ccc3c(N4CCOCC4)nc(N4C[C@@H](C)O[C@@H](C)C4)nc3n2)cc1CO`
A: 100

* * *

# tgt: MAPK11 (human)
# cond: compound 10.0 µM
quantity.name: per cent of control (%)
API: value field is a number in %; no unit string.

// known answers, use as guide
Q: Please list per cent of control recorded for the molecule `CC(C)n1nc(-c2cc3cc(O)ccc3[nH]2)c2c(N)ncnc21`
A: 77

Q: Please list per cent of control recorded for the molecule `COC(=O)Nc1ccc(-c2nc(N3CCOCC3)c3cnn(C4CCN(C(=O)OC)CC4)c3n2)cc1`
A: 81

Q: Please list per cent of control recorded for the molecule `COc1ccc(-c2ccc3c(N4CCOCC4)nc(N4C[C@@H](C)O[C@@H](C)C4)nc3n2)cc1CO`
A: 83

Alright, here's another molecule for you.
Q: Please list per cent of control recorded for the molecule `CCC(=O)N1CCN(c2ccc(-n3c(=O)ccc4cnc5ccc(-c6cnc7ccccc7c6)cc5c43)cc2C(F)(F)F)CC1`
A: 78

* * *

Entries and their measured kinase still bound, per cent of control follow.
# tgt: CSNK2A2 (human) (UniProt P19784)
# Sequence (P19784 whole entry, looked up): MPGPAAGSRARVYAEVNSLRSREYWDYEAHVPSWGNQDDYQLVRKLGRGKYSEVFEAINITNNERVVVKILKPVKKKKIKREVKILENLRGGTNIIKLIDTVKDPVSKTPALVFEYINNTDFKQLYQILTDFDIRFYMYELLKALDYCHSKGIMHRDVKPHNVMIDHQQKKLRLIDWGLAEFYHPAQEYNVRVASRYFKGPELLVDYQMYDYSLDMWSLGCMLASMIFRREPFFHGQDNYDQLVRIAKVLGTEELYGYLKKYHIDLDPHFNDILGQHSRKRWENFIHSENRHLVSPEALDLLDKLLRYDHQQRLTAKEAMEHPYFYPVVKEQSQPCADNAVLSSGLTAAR
# experiment.notes: KINOMEscan competition binding
# cond: compound 10.0 µM

// known answers, use as guide
Q: Please list kinase still bound, per cent of control recorded for the molecule `CCC(=O)N1CCN(c2ccc(-n3c(=O)ccc4cnc5ccc(-c6cnc7ccccc7c6)cc5c43)cc2C(F)(F)F)CC1`
A: 11%

Q: Please list kinase still bound, per cent of control recorded for the molecule `CC(C)n1nc(-c2cc3cc(O)ccc3[nH]2)c2c(N)ncnc21`
A: 3.5%

Q: Please list kinase still bound, per cent of control recorded for the molecule `COC(=O)Nc1ccc(-c2nc(N3CCOCC3)c3cnn(C4CCN(C(=O)OC)CC4)c3n2)cc1`
A: 83%

Alright, here's another molecule for you.
Q: Please list kinase still bound, per cent of control recorded for the molecule `COc1ccc(-c2ccc3c(N4CCOCC4)nc(N4C[C@@H](C)O[C@@H](C)C4)nc3n2)cc1CO`
A: 98%

* * *

Entries and their measured kinase still bound, per cent of control follow.
# tgt: CHUK (human) (UniProt O15111)
# Sequence (O15111 whole entry, looked up): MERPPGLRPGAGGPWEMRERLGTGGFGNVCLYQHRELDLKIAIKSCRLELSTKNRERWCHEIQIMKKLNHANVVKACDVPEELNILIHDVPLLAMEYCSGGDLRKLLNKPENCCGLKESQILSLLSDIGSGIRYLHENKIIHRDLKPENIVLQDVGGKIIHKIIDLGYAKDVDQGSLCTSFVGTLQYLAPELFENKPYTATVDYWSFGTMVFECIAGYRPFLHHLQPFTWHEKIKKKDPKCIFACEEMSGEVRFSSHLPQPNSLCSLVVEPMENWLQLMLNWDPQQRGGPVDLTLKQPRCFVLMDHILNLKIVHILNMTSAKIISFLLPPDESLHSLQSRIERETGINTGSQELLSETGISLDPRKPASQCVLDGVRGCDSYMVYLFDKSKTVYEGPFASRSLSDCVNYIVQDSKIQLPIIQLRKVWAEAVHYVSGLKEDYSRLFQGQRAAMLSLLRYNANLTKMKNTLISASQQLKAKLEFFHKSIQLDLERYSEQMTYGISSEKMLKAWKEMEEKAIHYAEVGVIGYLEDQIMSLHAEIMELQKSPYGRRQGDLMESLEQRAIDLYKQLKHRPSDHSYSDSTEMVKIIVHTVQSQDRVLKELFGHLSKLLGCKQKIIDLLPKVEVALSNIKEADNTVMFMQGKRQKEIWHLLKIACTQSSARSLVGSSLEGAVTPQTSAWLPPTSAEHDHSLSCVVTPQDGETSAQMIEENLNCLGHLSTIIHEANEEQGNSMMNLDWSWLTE
# experiment.notes: KINOMEscan competition binding
# cond: compound 10.0 µM
API: value field is a number in %; no unit string.

Q: Lab note: CHUK (human) (UniProt O15111) assay, enter kinase still bound, per cent of control for `CCC(=O)N1CCN(c2ccc(-n3c(=O)ccc4cnc5ccc(-c6cnc7ccccc7c6)cc5c43)cc2C(F)(F)F)CC1` here
A: 41

Q: Lab note: CHUK (human) (UniProt O15111) assay, enter kinase still bound, per cent of control for `COc1ccc(-c2ccc3c(N4CCOCC4)nc(N4C[C@@H](C)O[C@@H](C)C4)nc3n2)cc1CO` here
A: 72

Q: Lab note: CHUK (human) (UniProt O15111) assay, enter kinase still bound, per cent of control for `CC(C)n1nc(-c2cc3cc(O)ccc3[nH]2)c2c(N)ncnc21` here
A: 41

Q: Lab note: CHUK (human) (UniProt O15111) assay, enter kinase still bound, per cent of control for `COC(=O)Nc1ccc(-c2nc(N3CCOCC3)c3cnn(C4CCN(C(=O)OC)CC4)c3n2)cc1` here
A: 63
